Test: Toxicity liver stage against HepG2, at 10uM
Assay type: cell-based
Design: test concentration 10 uM, cell line HepG2-A16-CD81EGFP
Conditions: human, HepG2-A16-CD81EGFP cells; read-out: INHIBITION
EXPERIMENTAL READOUT: cytotoxicity at 10 µM (%)

{"columns": ["MOLECULE", "UOM", "READOUT NUMBER"],
 "data": [
  ["Cc1cccc(NC(=O)N2CC(C(=O)NC(C)C)C3(CCOCC3)C2)c1 (configuration not stated)", "%", -75],
  ["Cn1c(C2CC2)nc2c1CCN(CC(=O)Nc1ccncc1)C2", "%", -11.8],
  ["CCOc1ccccc1N(C)Cc1nccn1C", "%", -3.83],
  ["COc1cccc(S(=O)(=O)N2CCOC(C)(C(N)=O)C2)c1 (configuration not stated)", "%", 3.08],
  ["Nc1nc2c(c(NCc3cnc4c(c3)CCC4)n1)CCNC2", "%", 1.98],
  ["Fc1ccc(-c2nc(CNCCn3cccn3)cs2)cc1", "%", -11.2],
  ["C[C@@H]1CN(Cc2c[nH]c(CC3CCCC3)n2)CC[C@]1(C)O", "%", 3.69],
  ["Cc1cc(=O)[nH]c(-n2nc(-c3cccs3)cc2N)n1", "%", 4.57],
  ["CN(C)c1cccc(CNC(=O)Nc2ccc3[nH]nnc3c2)n1", "%", 3.15],
  ["Cc1ccc(-c2cnnc(NCC3(N4CCOCC4)CCCC3)n2)o1", "%", -6.79],
  ["CC(C)OCCCNC(=O)C1CC(=O)N(c2n[nH]c3cccc(F)c23)C1 (configuration not stated)", "%", -4.73],
  ["c1cnn(CC2CCCN2Cc2nc(-c3ccoc3)no2)c1 (configuration not stated)", "%", -7.07],
  ["O=C(CCn1cncn1)N1CC[C@@H](c2ccc3ccccc3c2)[C@H](O)C1", "%", -5.16],
  ["Cc1nn(C)c(C)c1C(C)NC(=O)c1cc(CN2CCC(O)CC2)on1 (configuration not stated)", "%", 0.894],
  ["CC(C)(N)C(=O)N1CCCC1c1cncc(Oc2ccccc2)n1 (configuration not stated)", "%", -6.02],
  ["O=C(c1ccoc1)N1CCc2c(COCc3ccncc3)cncc2C1", "%", 8.1],
  ["FC1(F)CCNCC12CCN(c1cccnc1)C2 (configuration not stated)", "%", 5.8],
  ["CC(=O)NCCNC(=O)c1ccc(C)c(-n2cccc2)c1", "%", -2.04],
  ["COc1cc(Cl)c(CN2CCC(C(N)=O)C2)cc1Cl (configuration not stated)", "%", -2.4],
  ["Cc1cc(N2CCC3(CCC(=O)N(CCCO)C3)CC2)nc(N(C)C)n1", "%", -0.116],
  ["Cc1ccc(Oc2nccnc2C2CCN(C(=O)C(C)(C)N)CC2)cc1", "%", -7.86],
  ["CCN1CCCC(CN2CCn3nc(CNC(=O)N(C)C)cc3C2)C1 (configuration not stated)", "%", -2.96],
  ["CN1CC[C@H]2CN(C(=O)COCc3nc4cc(F)ccc4[nH]3)C[C@H]21", "%", 2.77],
  ["CCc1[nH]ncc1C(=O)N1CCCN(Cc2cnn(C)c2)CC1", "%", 1.71],
  ["Cn1c(C(F)(F)F)nn(CCNC(=O)c2ccccn2)c1=O", "%", -1.4],
  ["Cc1nnc(-c2cccc(C#N)c2)n1C1CCN(C(C)C)C1=O (configuration not stated)", "%", -2.4],
  ["CCn1cc(CN2CCCC(c3[nH]ncc3-c3ccc(C)cc3)C2)cn1 (configuration not stated)", "%", -1.67],
  ["O=C(c1cccnc1)N1CC(S(=O)(=O)c2ccc(Cl)cc2)C1", "%", -0.649],
  ["CC(NC(=O)Nc1nccs1)c1ccc(S(C)(=O)=O)cc1 (configuration not stated)", "%", 7.04],
  ["Cc1cc2c(=O)n3c(nc2s1)CCN(C(=O)c1ccncc1)CC3", "%", 1.08],
  ["CC(C)NC(=O)N1CCC2(CC(=O)N(c3cccc(F)c3)C2)C1 (configuration not stated)", "%", 3.46],
  ["COCCN(CCOC)C(=O)c1ccoc1C", "%", 6.72],
  ["CCCNc1ccc(C(=O)NCCc2cccc(Cl)c2)cn1", "%", 1.17],
  ["Cc1nc(CN2CCN(C3CCOC3)Cc3cccnc32)cs1 (configuration not stated)", "%", 8.91],
  ["CC(C)(C)CCN1CCC(c2nnc(Cn3cccn3)n2C2CC2)CC1", "%", 8.19],
  ["CCC[C@H]1CN(CCS(C)(=O)=O)C[C@@H]1NC(=O)c1cccnn1", "%", 3.25],
  ["COCCN1CCc2ccc(=O)n(Cc3csc(C)n3)c2CC1", "%", 4.68],
  ["CCOc1ccnc(N2CCN(C(=O)c3ccc(OC)cc3)CC2)n1", "%", -15.6],
  ["CCCNC(=O)CCC(=O)Nc1cc2sc(C)nc2cc1OC", "%", 4.55],
  ["O=C(NCc1ccco1)[C@@]12CCO[C@@H]1CCN(Cc1ccccn1)C2", "%", 0.109],
  ["COc1cc2c(cc1OC)S(=O)(=O)N(Cc1ccccc1C)C2=O", "%", 10.3],
  ["COCc1cc(N(CC(F)F)C2CC2)n2ncnc2n1", "%", -3.94],
  ["Cc1[nH]c2c(C)ccc(C)c2c1CC(=O)NCC(O)c1cccnc1 (configuration not stated)", "%", -2.11],
  ["CCc1nc(NS(=O)(=O)c2cc(C)ccc2Br)no1", "%", 4.66],
  ["COC(=O)c1ccc(N(C(=O)c2ccncc2)C(C)C)c(C)c1", "%", 0.503],
  ["CN(Cc1ccc([S+](C)[O-])cc1)c1cncc(Br)c1 (configuration not stated)", "%", 11.7],
  ["CC(=O)N1C[C@H]2CC[C@@H](C1)N(Cc1ccc(Cn3cccn3)cc1)C2", "%", 0.0531]
]}
